Data origin: patent US20240247080A1

- MEASUREMENT_TARGET: hGIPR (Homo sapiens, UniProt P48546)
- Construct: expressed in transfected cells; host or cells: CHO cells carrying a CRE-luciferase reporter gene
- Sequence (P48546 22-466): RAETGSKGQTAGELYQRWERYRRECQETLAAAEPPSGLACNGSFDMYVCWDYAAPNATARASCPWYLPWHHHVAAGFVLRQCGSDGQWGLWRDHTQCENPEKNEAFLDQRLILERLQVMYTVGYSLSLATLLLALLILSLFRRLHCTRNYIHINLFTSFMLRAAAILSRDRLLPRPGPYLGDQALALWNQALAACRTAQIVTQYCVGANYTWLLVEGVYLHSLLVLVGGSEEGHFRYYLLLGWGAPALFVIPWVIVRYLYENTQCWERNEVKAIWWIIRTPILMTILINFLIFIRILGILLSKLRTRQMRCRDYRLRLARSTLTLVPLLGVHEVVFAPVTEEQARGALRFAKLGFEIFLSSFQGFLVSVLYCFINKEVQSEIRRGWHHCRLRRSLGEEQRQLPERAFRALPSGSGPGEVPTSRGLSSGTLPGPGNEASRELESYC
- RUN_DESCRIPTION: hGIPR CreLuc reporter gene assay in 0.5% and 100% plasma
- Format: cell-based
- TEST_CONTEXT: CreLuc reporter gene assay, 100% human plasma; read-out: hGIPR 100% hP
Starred links: 1 amine or outer side, 2 acyl side, 3 side chain; linkers in the order of their positions; H or OH if unused. Non-standard residues stand in square brackets, D forms with d. Groups on a side chain read outwards from the residue. *: point of attachment. C20 diacid = O=C(O)CCCCCCCCCCCCCCCCCCC(=O)*; C18 diacid = O=C(O)CCCCCCCCCCCCCCCCC(=O)*; γGlu = O=C(O)[C@H](CCC(=O)[*:2])N[*:1]; εLys = N[C@@H](CCCCN[*:1])C(=O)[*:2]; AEEA = NCCOCCOCC(=O)O; Aib = CC(C)(N)C(=O)O
READOUT_NAME: pEC50
Numbers only, as −log10 of the molar value.

Solved entries:
SUBSTANCE | READOUT_NAME | OBSERVED_MEASUREMENT
H-Y[Aib]EGTFTSDYSI[Aib]LEKQAQ[Aib]AFVEWLIK([AEEA-AEEA-γGlu-γGlu-γGlu-γGlu-C18 diacid])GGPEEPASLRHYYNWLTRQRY-NH2 [Compound 161] | pEC50 | 8.91
H-Y[Aib]EGTFTSDYSI[Aib]LEEQAQ[Aib]AFVQWLIK([εLys-AEEA-γGlu-γGlu-γGlu-γGlu-γGlu-C20 diacid])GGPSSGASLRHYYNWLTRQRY-NH2 [Compound 45] | pEC50 | 8.94

// switching to the query substance
For the substance H-Y[Aib]EGTFTSDYSI[Aib]LEKQAQ[Aib]AFVQWLIK([Glu-Glu-Glu-Glu-C18 diacid])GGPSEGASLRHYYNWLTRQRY-NH2 [Compound 281] , what pEC50 is on record? 9.16
